# experimentalSystem: murine E^d MHC class II allele (Mus musculus, UniProt P01904+P01915)
# Sequence (P01904 26-255): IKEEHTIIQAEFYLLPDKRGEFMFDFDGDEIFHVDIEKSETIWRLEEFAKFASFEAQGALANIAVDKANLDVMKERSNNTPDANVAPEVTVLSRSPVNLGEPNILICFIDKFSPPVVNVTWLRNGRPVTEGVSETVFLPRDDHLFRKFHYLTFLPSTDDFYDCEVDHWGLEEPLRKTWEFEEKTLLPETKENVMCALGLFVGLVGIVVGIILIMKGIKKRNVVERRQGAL
# Sequence (P01915 27-264 limits assumed): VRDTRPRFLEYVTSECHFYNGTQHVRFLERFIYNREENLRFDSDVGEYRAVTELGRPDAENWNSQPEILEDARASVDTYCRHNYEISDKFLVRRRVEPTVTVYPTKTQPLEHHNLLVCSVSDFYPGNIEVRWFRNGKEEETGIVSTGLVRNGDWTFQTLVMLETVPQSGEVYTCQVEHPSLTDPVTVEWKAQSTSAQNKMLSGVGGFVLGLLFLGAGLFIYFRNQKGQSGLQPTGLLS
# experiment: processed antigen assay, E^d allele (APC pulsed with native HEL)
# Format: cell-based
# Design: The A20 and CH27 B cell lymphoma lines express H-2^d and H-2^k alleles, respectively; endogenous in cells; host or cells: A20 B cell lymphoma (mitomycin C-treated or paraformaldehyde-fixed)
# protocolConditions: Table 32; native HEL prepulse 20 μM; AE peptide 64 μM; supernatant dilution 1:4
Non-standard residues stand in square brackets, D forms with d. hArg = N=C(N)NCCCC[C@H](N)C(=O)O; Cit = NC(=O)NCCC[C@H](N)C(=O)O
readoutLabel: T cell response relative to baseline (None = 1.0), E^d

- substance: "Ac-LRMKLP N-NH2 (Ac-LRMKLPN-NH2) [AE246]"
  experimentalSystem: "murine E^d MHC class II allele (Mus musculus, UniProt P01904+P01915)"
  resultNumber: 0.72
- substance: "Ac-LRMKYP[Cit]-NH2 [AE364]"
  experimentalSystem: "murine E^d MHC class II allele (Mus musculus, UniProt P01904+P01915)"
  resultNumber: 0.56
- substance: "Ac-Y[hArg]MKLPKSAK-NH2 [AE132]"
  experimentalSystem: "murine E^d MHC class II allele (Mus musculus, UniProt P01904+P01915)"
  resultNumber: 0.48

====

Relative Enhancement reference
# experimentalSystem: HLA-DR1 molecules (Homo sapiens, UniProt P01903+P01911, A100R/D57E/F55L/F60I/F76Y/I96L/L162R/M171V/P40L/Q125E/R42F/V115G/Y59C)
# Construct: The HLA-DR alpha gene was truncated after Asn^192 to remove transmembranal and cytoplasmic regions from the protein product; A gene coding for the HLA-DR1 beta chain was truncated after position Lys^198, again to delete the transmembranal region; made in house; host or cells: insect cell line printed as HS / H5 (Invitrogen), co-infected with two baculoviruses; concentrated culture supernatant captured on 12CA5 antibody
# experiment: binding of biotin-labeled hMBP(90-102) to "empty" HLA-DR1 (assay IV)
# protocolConditions: Table 39; AE101 series compound 64 μM; biotin-labeled hMBP(90-102) 50 μM, 37° C., 1 h; no enhancement = 1
No end group written: not given here.
readoutLabel: Relative Enhancement

- substance: "Ac-LRMK Y PK-NH2 (Ac-LRMKYPK-NH2; not fully specified; printed as Ac-LRMK Y PK-NH2) [AE235]"
  readoutLabel: "Relative Enhancement"
  resultNumber: 0.61
- substance: "cyclic LRMKLPK (bridge (positions not given here); also: cyclic, ring type not given here) [AE381, “head-to-tail” cyclization from the amino-terminus to the carboxyl-terminus of AE114]"
  readoutLabel: "Relative Enhancement"
  resultNumber: 1.84
- substance: "AE401: The N-terminal portion of AE100 (LRMKLPKPP)"
  readoutLabel: "Relative Enhancement"
  resultNumber: 4.29
- substance: "AE100 (YRMKLPKPPKPVSKMR)"
  readoutLabel: "Relative Enhancement"
  resultNumber: 3.44
- substance: "AE403 (MKLPKPPKPV)"
  readoutLabel: "Relative Enhancement"
  resultNumber: 0.47

====

# experimentalSystem: murine E^d MHC class II allele (Mus musculus, UniProt P01904+P01915)
# Sequence (P01904 26-255): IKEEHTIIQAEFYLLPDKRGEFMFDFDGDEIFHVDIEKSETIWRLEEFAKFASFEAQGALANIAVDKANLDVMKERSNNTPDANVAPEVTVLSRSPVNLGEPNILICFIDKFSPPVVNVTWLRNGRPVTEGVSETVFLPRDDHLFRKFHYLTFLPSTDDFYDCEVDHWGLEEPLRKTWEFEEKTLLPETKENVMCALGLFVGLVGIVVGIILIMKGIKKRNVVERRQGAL
# Sequence (P01915 27-264 limits assumed): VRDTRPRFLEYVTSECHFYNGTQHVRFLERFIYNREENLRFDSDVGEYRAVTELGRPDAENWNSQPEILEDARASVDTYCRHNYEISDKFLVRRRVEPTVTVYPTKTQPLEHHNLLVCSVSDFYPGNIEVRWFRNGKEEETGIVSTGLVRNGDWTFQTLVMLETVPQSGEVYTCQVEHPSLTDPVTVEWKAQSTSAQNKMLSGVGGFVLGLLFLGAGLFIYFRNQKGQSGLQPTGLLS
# experiment: processed antigen assay, E^d allele (APC pulsed with native HEL)
# Type: cell-based
# Set-up: The A20 and CH27 B cell lymphoma lines express H-2^d and H-2^k alleles, respectively; endogenous in cells; host or cells: A20 B cell lymphoma (mitomycin C-treated or paraformaldehyde-fixed)
# protocolConditions: Table 29; native HEL prepulse 10 μM; AE peptide 64 μM; supernatant dilution 1:8 (second value)
Non-standard residues stand in square brackets, D forms with d. hArg = N=C(N)NCCCC[C@H](N)C(=O)O; Cit = NC(=O)NCCC[C@H](N)C(=O)O
readoutLabel: T cell response relative to baseline (None = 1.0), 10 μM HEL E^d, second value

- substance: "Ac-LRMK HArg PK-NH2 (Ac-LRMK[hArg]PK-NH2; SMILES CSCC[C@H](NC(=O)[C@H](CCCNC(=N)N)NC(=O)[C@H](CC(C)C)NC(C)=O)C(=O)N[C@@H](CCCCN)C(=O)N[C@@H](CCCCNC(=N)N)C(=O)N1CCC[C@H]1C(=O)N[C@@H](CCCCN)C(N)=O) [AE227]"
  experimentalSystem: "murine E^d MHC class II allele (Mus musculus, UniProt P01904+P01915)"
  resultNumber: 0.19
- substance: "Ac-LRMK E PK-NH2 (Ac-LRMKEPK-NH2) [AE231]"
  experimentalSystem: "murine E^d MHC class II allele (Mus musculus, UniProt P01904+P01915)"
  resultNumber: 0.83
- substance: "Ac-LRMK N PK-NH2 (Ac-LRMKNPK-NH2) [AE232]"
  experimentalSystem: "murine E^d MHC class II allele (Mus musculus, UniProt P01904+P01915)"
  resultNumber: 0.61
- substance: "Ac-LRMK H PK-NH2 (Ac-LRMKHPK-NH2) [AE228]"
  experimentalSystem: "murine E^d MHC class II allele (Mus musculus, UniProt P01904+P01915)"
  resultNumber: 0.41
- substance: "Ac-LRMK D PK-NH2 (Ac-LRMKDPK-NH2) [AE230]"
  experimentalSystem: "murine E^d MHC class II allele (Mus musculus, UniProt P01904+P01915)"
  resultNumber: 0.77
- substance: "Ac-LRMK Q PK-NH2 (Ac-LRMKQPK-NH2) [AE233]"
  experimentalSystem: "murine E^d MHC class II allele (Mus musculus, UniProt P01904+P01915)"
  resultNumber: 0.47
- substance: "Ac-LRMK F PK-NH2 (Ac-LRMKFPK-NH2) [AE234]"
  experimentalSystem: "murine E^d MHC class II allele (Mus musculus, UniProt P01904+P01915)"
  resultNumber: 0.60
- substance: "Ac-LRMK K PK-NH2 (Ac-LRMKKPK-NH2) [AE229]"
  experimentalSystem: "murine E^d MHC class II allele (Mus musculus, UniProt P01904+P01915)"
  resultNumber: 0.49
- substance: "Ac-LRMK Cit PK-NH2 (Ac-LRMK[Cit]PK-NH2; SMILES CSCC[C@H](NC(=O)[C@H](CCCNC(=N)N)NC(=O)[C@H](CC(C)C)NC(C)=O)C(=O)N[C@@H](CCCCN)C(=O)N[C@@H](CCCNC(N)=O)C(=O)N1CCC[C@H]1C(=O)N[C@@H](CCCCN)C(N)=O) [AE226]"
  experimentalSystem: "murine E^d MHC class II allele (Mus musculus, UniProt P01904+P01915)"
  resultNumber: 0.58
- substance: "Ac-LRMK Y PK-NH2 (Ac-LRMKYPK-NH2; not fully specified; printed as Ac-LRMK Y PK-NH2) [AE235]"
  experimentalSystem: "murine E^d MHC class II allele (Mus musculus, UniProt P01904+P01915)"
  resultNumber: 0.39
- substance: "Ac-LRMKLPK-NH2 [AE114]"
  experimentalSystem: "murine E^d MHC class II allele (Mus musculus, UniProt P01904+P01915)"
  resultNumber: 0.28
- substance: "Ac-LRMK M PK-NH2 (Ac-LRMKMPK-NH2) [AE236]"
  experimentalSystem: "murine E^d MHC class II allele (Mus musculus, UniProt P01904+P01915)"
  resultNumber: 0.53
